SYSTEM: human PDE9A2 (Homo sapiens, UniProt O76083)
Construct: made in house; host or cells: Sf9 insect cells (infected); crude lysate used as enzyme source
Sequence (O76083 1-533 isoform O76083-2): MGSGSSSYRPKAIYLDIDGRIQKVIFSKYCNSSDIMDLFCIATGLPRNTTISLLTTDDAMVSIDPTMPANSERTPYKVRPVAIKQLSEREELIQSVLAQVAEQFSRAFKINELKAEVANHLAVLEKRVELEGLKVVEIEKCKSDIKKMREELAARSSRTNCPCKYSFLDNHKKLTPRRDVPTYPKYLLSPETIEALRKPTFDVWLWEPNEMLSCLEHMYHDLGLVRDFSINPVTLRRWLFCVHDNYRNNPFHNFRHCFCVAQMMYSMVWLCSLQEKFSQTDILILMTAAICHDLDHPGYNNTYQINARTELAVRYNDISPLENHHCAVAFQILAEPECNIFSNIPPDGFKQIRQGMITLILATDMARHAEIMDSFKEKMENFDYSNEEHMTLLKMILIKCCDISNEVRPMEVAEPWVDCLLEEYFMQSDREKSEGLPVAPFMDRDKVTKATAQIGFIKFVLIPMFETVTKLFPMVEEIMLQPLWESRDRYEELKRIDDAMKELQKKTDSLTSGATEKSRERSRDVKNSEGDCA
PROTOCOL DESCRIPTION: PDE9A2 enzymatic activity assay (scintillation proximity assay, SPA)
Format: biochemical
EXPERIMENTAL PARAMETERS: reported only as range 1-100 or 101-1200 nanomolar; specific value lies within range; read-out: IC50 within range [nanomolar (nM)]
// reported IC50 per item

COMPOUND | IC50
CC(C)Cc1nc2c(cnn2C2CCOC(C)C2)c(=O)[nH]1 (racemic) [Example 115] | 101 to 1200 nM
Cc1cccnc1Cc1nc2c(cnn2C2CCCOC2)c(=O)[nH]1 (racemic) | 101 to 1200 nM
CCC(Cc1nc2c(cnn2C2CCOCC2)c(=O)[nH]1)C(F)(F)F (racemic) [Example 48] | 1 to 100 nM
CC(=O)N1CCCC(n2ncc3c(=O)[nH]c(Cc4ccccc4OC(F)(F)F)nc32)C1 (racemic) | 1 to 100 nM
COc1ccc(Cc2nc3c(cnn3C3CCOCC3)c(=O)[nH]2)cc1 | 1 to 100 nM
CC(Cc1nc2c(cnn2C2CCOC2)c(=O)[nH]1)C(F)(F)F (mixture of isomers) | 101 to 1200 nM
O=c1[nH]c(Cc2ccccc2OC(F)(F)F)nc2c1cnn2C1CCOCC1 | 1 to 100 nM
CC(C)(C)OC(=O)N1CCC(n2ncc3c(=O)[nH]c(Cc4ccccc4)nc32)C1 (racemic) | 101 to 1200 nM

* * *

Recorded IC50 by entry
SYSTEM: human PDE9A2 (Homo sapiens, UniProt O76083)
Construct: made in house; host or cells: Sf9 insect cells (infected); crude lysate used as enzyme source
PROTOCOL DESCRIPTION: PDE9A2 enzymatic activity assay (scintillation proximity assay, SPA)
Type: biochemical
EXPERIMENTAL PARAMETERS: reported only as range 1-100 or 101-1200 nanomolar; specific value lies within range; read-out: IC50 within range [nanomolar (nM)]
REPORTED ENDPOINT: IC50

COMPOUND | REPORTED ENDPOINT | RESULT
CC(C)Cc1nc2c(cnn2C2CCOCC2C)c(=O)[nH]1 (racemic) [Example 132-8] | IC50 | 101 to 1200 nM
CN(C)C(=O)N1CCCC(n2ncc3c(=O)[nH]c(Cc4ccccc4)nc32)C1 (racemic) [Example 159] | IC50 | 1 to 100 nM
N#Cc1cccc(Cc2nc3c(cnn3C3CCOC3)c(=O)[nH]2)c1 (racemic) [Example 89] | IC50 | 101 to 1200 nM
Cc1ccccc1Cc1nc2c(cnn2C2CCOCC2)c(=O)[nH]1 [Example 2] | IC50 | 1 to 100 nM
CCC(Cc1nc2c(cnn2C2CCOCC2)c(=O)[nH]1)C(F)(F)F (single isomer, unassigned) [Example 62] | IC50 | 1 to 100 nM
CN1CCC(n2ncc3c(=O)[nH]c(CC4CCC4)nc32)C1 (racemic) [Example 214] | IC50 | 1 to 100 nM
O=c1[nH]c(CC2CCCO2)nc2c1cnn2C1CCOCC1 (racemic) [Example 42] | IC50 | 101 to 1200 nM
CN1CCCC(n2ncc3c(=O)[nH]c(Cc4ccccc4OC(F)(F)F)nc32)C1 (racemic) [Example 209] | IC50 | 101 to 1200 nM
